Biological target: GDP-loaded HIS-KRAS (G12D, aa 1-169) (Homo sapiens, UniProt P01116, G12D)
Construct: GDP-loaded HIS-KRAS (G12D, aa 1-169)
Sequence (P01116 1-169 isoform P01116-2 G12D): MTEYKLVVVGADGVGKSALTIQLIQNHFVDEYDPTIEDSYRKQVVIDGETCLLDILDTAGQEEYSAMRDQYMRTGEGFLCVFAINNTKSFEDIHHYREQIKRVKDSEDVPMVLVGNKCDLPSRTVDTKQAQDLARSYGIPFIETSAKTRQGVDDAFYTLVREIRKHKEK
Assay: SOS1 catalyzed nucleotide exchange assay
Conditions: SOS1 ExD, TR-FRET, 4 hours at 25° C.
Catalogue of compounds with associated IC50
Give your result in nM as a bare value.

C#Cc1c(Cl)ccc2cc(O)cc(-c3ccc4c(N5CC6CCC(C5)N6)nc(OCC5(CN6CCOCC6)CC5)nc4c3F)c12 [Compound 127] | 1.18
Cc1ccc2cc(O)cc(-c3ccc4c(N5CC6CCC(C5)N6)nc(OCC5(CN6CCOCC6)CC5)nc4c3F)c2c1 [Compound 64] | 45.4

Look at this compound and give its reported IC50. C#Cc1c(F)ccc2cc(O)cc(-c3c(Cl)cc4c(C5CC6CCC(C5)N6)nc(OC[C@@]56CCCN5C[C@H](F)C6)nc4c3F)c12 (stereo partly drawn) [Compound 100]
5.93

* * *

Each item that follows carries a reported pIC50.
Molecular target: GppNp-loaded HIS-KRAS (G12D, aa 1-169) / cRAF RBD (Homo sapiens, UniProt P01116, G12D)
Construct: GppNp-loaded HIS-KRAS (G12D, aa 1-169)
Sequence (P01116 1-169 isoform P01116-2 G12D): as above
Assay: GTP-KRAS and cRAF interaction assay
Details: HTRF, 2 hours at 25° C.
Notebook: values listed as pIC50 are -log10 of the concentration (mol/L).

Here is how some molecules turned out for pIC50.
C#Cc1cccc2cc(O)cc(-c3ccc4c(N5CC6CCC(C5)N6)nc(OC[C@@]56CCCN5C[C@H](F)C6)nc4c3)c12 [Compound 96] | 6.84
C#Cc1cccc2cc(O)cc(-c3cc4nc(OC[C@@]56CCCN5C[C@H](F)C6)nc(N5CC6CCC(C5)N6)c4cc3Cl)c12 [Compound 97] | 7.35
C#Cc1cccc2cc(O)cc(-c3cc4nc(OCC5(CN6CCOCC6)CC5)nc(N5CC6CCC(C5)N6)c4cc3F)c12 [Compound 108] | 6.53
C#Cc1cccc2cc(O)cc(-c3cc4nc(OCC5(CN6CCOCC6)CC5)nc(N5CC6CCC(C5)N6)c4cc3C(F)(F)F)c12 [Compound 119] | 6.70
C#Cc1cccc2cc(O)cc(-c3c(F)cc4c(N5CC6CCC(C5)N6)nc(OCC5(CN6CCOCC6)CC5)nc4c3Cl)c12 [Compound 43] | 6.38

Could you now consider this next molecule?
Checklist item: pIC50 tested on GppNp-loaded HIS-KRAS (G12D, aa 1-169) / cRAF RBD (Homo sapiens, UniProt P01116, G12D), entry C#Cc1cccc2cc(O)cc(-c3c(C(=C)C)cc4c(N5CC6CCC(C5)N6)nc(OCC5(CN6CCOCC6)CC5)nc4c3F)c12 [Compound 105] , value?
7.81

* * *

Entries and their IC50
Target: GDP-loaded HIS-KRAS (G12D, aa 1-169) (Homo sapiens, UniProt P01116, G12D)
Construct: GDP-loaded HIS-KRAS (G12D, aa 1-169)
Experiment: SOS1 catalyzed nucleotide exchange assay
Conditions: SOS1 ExD, TR-FRET, 4 hours at 25° C.
A number alone suffices; assume nM.

Sample records with IC50:
C#Cc1cccc2cc(O)cc(-c3ccc4c(N5CC6CCC(C5)N6)nc(OCC5(CN6CCC[C@H](F)C6)CC5)nc4c3F)c12 | 12.6
C#Cc1cccc2cc(O)cc(-c3c(C)cc4c(N5CC6CCC(C5)N6)nc(OCC5(CN6CCOCC6)CC5)nc4c3F)c12 [Compound 40] | 27.7
C#Cc1cccc2cc(O)cc(-c3cc4nc(OCC5(CN6CCOCC6)CC5)nc(N5CC6CCC(C5)N6)c4cc3Cl)c12 | 45.8
C#Cc1c(Cl)ccc2cc(O)cc(-c3c(F)cc4c(N5CC6CCC(C5)N6)nc(OCC5(CN6CCOCC6)CC5)nc4c3F)c12 | 2.07

Observed IC50 on GDP-loaded HIS-KRAS (G12D, aa 1-169) (Homo sapiens, UniProt P01116, G12D) for `C#Cc1cccc2cc(O)cc(-c3c(CC)cc4c(N5CC6CCC(C5)N6)nc(OCC5(CN6CCOCC6)CC5)nc4c3F)c12` , please.
3.51

# iterate: `C#Cc1c(F)ccc2cc(O)cc(-c3ccc4c(N5CC6CCC(C5)N6)nc(OCC5(CN6CCC(C(=O)O)CC6)CC5)nc4c3F)c12`
5.11

* * *

Reported IC50 by item:
Tested on: AGS cells expressing KRAS G12D
Assay: Phospho-ERK1/2(THR202/TYR204) HTRF assay
Format: cell-based
Conditions: 2 hours incubation, read-out: AGS p-ERK IC50
State the answer as a number, implicitly in nM.

Look over these answered cases.
C#Cc1cccc2cc(O)cc(-c3c(C(F)(F)F)cc4c(N5CC6CCC(C5)N6)nc(OCC5(CN6CCOCC6)CC5)nc4c3F)c12 (single isomer, unassigned) [Compound 98A] | 1830
Cc1ccc2cc(O)cc(-c3ccc4c(N5CC6CCC(C5)N6)nc(OCC5(CN6CCOCC6)CC5)nc4c3F)c2c1 | 61.8
C#Cc1cccc2cc(O)cc(-c3c(C(F)(F)F)cc4c(N5CC6CCC(C5)N6)nc(OCC5(CN6CCOCC6)CC5)nc4c3F)c12 (single isomer, unassigned) [Compound 98B] | 11.6
C#Cc1cccc2cc(O)cc(-c3c(Cl)cc4c(N5CC6CCC(C5)N6)nc(OCC5(CN6CCOCC6)CC5)nc4c3F)c12 (single isomer, unassigned) [Compound 35B] | 6.2
C#Cc1cccc2cc(O)cc(-c3ccc4c(N5CC6CCC(C5)N6)nc(OCC5(CN6CCC[C@H](F)C6)CC5)nc4c3F)c12 | 15.9

Here's the next entry for you.
Recorded IC50 for C#Cc1cccc2cc(O)cc(-c3c(F)cc4c(N5CC6CCC(C5)N6)nc(OCC5(CN6CCOCC6)CC5)nc4c3F)c12 (single isomer, unassigned) [Compound 41B] , please?
1.01

* * *

# key: entry, value: pIC50
Molecular target: GppNp-loaded HIS-KRAS (G12D, aa 1-169) / cRAF RBD (Homo sapiens, UniProt P01116, G12D)
Construct: GppNp-loaded HIS-KRAS (G12D, aa 1-169)
Test: GTP-KRAS and cRAF interaction assay
Assay type: binding
Settings: HTRF, 2 hours at 25° C.
As a rule, pIC50 stands for the negative log10 of the concentration, concentration in M.

C#Cc1cccc2cc(O)cc(-c3c(F)cc4c(N5CC6CCC(C5)N6)nc(OCC5(CN6CCS(=O)(=O)CC6)CC5)nc4c3F)c12 | 5.50

Entry under review: `C#Cc1cccc2cc(O)cc(-c3ccc4c(N5C[C@H]6C[C@@H]5CN6)nc(OCC5(CN6CCOCC6)CC5)nc4c3F)c12` . Reported pIC50?
6.45

Same question for `Cc1ccc2cc(O)cc(-c3ccc4c(N5CC6CCC(C5)N6)nc(OCC5(CN6CCOCC6)CC5)nc4c3F)c2c1` please.
6.48

Same for C#Cc1cccc2cc(O)cc(-c3c(C)cc4c(N5CC6CCC(C5)N6)nc(OCC5(CN6CCOCC6)CC5)nc4c3F)c12 (single isomer, unassigned) [Compound 40A]
5.79

* * *

Molecular target: GDP-loaded HIS-KRAS (G12D, aa 1-169) (Homo sapiens, UniProt P01116, G12D)
Construct: GDP-loaded HIS-KRAS (G12D, aa 1-169)
Experiment: SOS1 catalyzed nucleotide exchange assay
Conditions: SOS1 ExD, TR-FRET, 4 hours at 25° C.
In this section, each of the compounds is paired with its reported pIC50.
Answer as the number alone; pIC50 is minus log10 of concentration in mol/L.

Below: 5 compounds and their reported pIC50.
C#Cc1cccc2cc(O)cc(-c3c(C(F)(F)F)cc4c(N5CC6CCC(C5)N6)nc(OCC5(CN6CCOCC6)CC5)nc4c3F)c12 (single isomer, unassigned) [Compound 98A] | 6.66
C#Cc1cccc2cc(O)cc(-c3ccc4c(N5CC6CCC(C5)N6)nc(OCC5(CN6CCCCC6)CC5)nc4c3F)c12 [Compound 131] | 8.04
C#Cc1cccc2cc(O)cc(-c3ccc4c(N5CC6CCC(C5)N6)nc(OCC5(CN6CCOCC6)CC5)nc4c3Cl)c12 [Compound 121] | 7.54
C#Cc1c(F)ccc2cc(O)cc(-c3ccc4c(N5CC6CCC(C5)N6)nc(OCC5(CN6CCCC(F)C6)CC5)nc4c3F)c12 (stereo not drawn) [Compound 74] | 8.00
C#Cc1c(F)ccc2cccc(-c3ccc4c(N5CC6CCC(C5)N6)nc(OCC5(CN6CCOCC6)CC5)nc4c3F)c12 [Compound 93] | 7.03

Next compound, pIC50 to be filled in.
Hi! What's the reported pIC50 for C#Cc1cccc2cc(O)cc(-c3ccc4c(N5CCNC[C@H]5C)nc(OC[C@@]56CCCN5C[C@H](F)C6)nc4c3F)c12 [Compound 69] on GDP-loaded HIS-KRAS (G12D, aa 1-169) (Homo sapiens, UniProt P01116, G12D)?
7.60
